assay: Viscosity measurement with AR Rheometer (AR-G2) of the compounds of Examples 1-11; format: physicochemical; conditions: 25° C., after allowing to stand for 12 hours
Rule: Viscosity under 2 Pa·s gives FALSE, otherwise TRUE.

Example results:
CC(=CCCCOCC(CO)(CO)CO)CCCC(C)CCCC(C)CCCC(C)C (centres unmarked) [Example 10] :: FALSE
CC(=CCCCOC[C@H](O)[C@H](O)CO)CCCC(C)CCCC(C)CCCC(C)C (some centres unmarked) :: TRUE
CC(=CCCCOC(CO)C(O)CO)CCCC(C)CCCC(C)CCCC(C)C (centres unmarked) :: TRUE

Proceed to the following item.
Ask: Entry CC(=CCCC(=O)OCC(CO)(CO)CO)CCCC(C)CCCC(C)CCCC(C)C (centres unmarked) [Example 1] : is its Viscosity no less than 2 Pa·s?
Reply: FALSE

---

experiment: Viscosity measurement with viscosity and viscoelasticity measuring apparatus MARS (Example 179); format: physicochemical; conditions: 25° C., shear velocity 105.7 s^−1, MARS
measured quantity: Viscosity (Pas · sec)

CC(=CCCCOCC(O)COCC(O)CO)CCCC(C)CCCC(C)C (stereo not drawn) [Example 110] :: 1.7 Pas · sec
CC(=CC(=O)OCC(O)CO)CCCC(C)CCCC(C)C (stereo not drawn) [Example 146] :: 0.45 Pas · sec
CC(=CC(=O)OCC(O)COCC(O)CO)CCCC(C)CCCC(C)C (stereo not drawn) [Example 149] :: 6.9 Pas · sec

Ask: Give the reported Viscosity (Pas · sec) for this molecule. CC(=CC(=O)OCC(CO)(CO)CO)CCCC(C)CCCC(C)CCCC(C)C (stereo not drawn) [Example 67]
Reply: 10.6 Pas · sec

Ask: Give the reported Viscosity (Pas · sec) for this molecule. CC(=CCCC(=O)OCC(O)CO)CCCC(C)CCCC(C)C (stereo not drawn) [Example 92]
Reply: 0.48 Pas · sec

Ask: Give the reported Viscosity (Pas · sec) for this molecule. CC(=CCOCC(CO)(CO)CO)CCCC(C)CCCC(C)C (stereo not drawn) [Example 163]
Reply: 2.7 Pas · sec

Ask: Give the reported Viscosity (Pas · sec) for this molecule. CC(=CC(=O)OCC(O)CO)CCCC(C)CCCC(C)CCCC(C)C (stereo not drawn) [Example 65]
Reply: 1.1 Pas · sec

Ask: Give the reported Viscosity (Pas · sec) for this molecule. CC(=CCOCC(CO)(CO)CO)CCCC(C)CCCC(C)CCCC(C)C (stereo not drawn) [Example 82]
Reply: 4.0 Pas · sec

Ask: Give the reported Viscosity (Pas · sec) for this molecule. CC(=CC(=O)OC[C@H](O)[C@H](O)CO)CCCC(C)CCCC(C)C (stereo partly drawn) [Example 147]
Reply: 7.1 Pas · sec

Ask: Give the reported Viscosity (Pas · sec) for this molecule. CC(=CCCC(=O)OCC(O)COCC(O)CO)CCCC(C)CCCC(C)C (stereo not drawn) [Example 95]
Reply: 10.5 Pas · sec

Ask: Give the reported Viscosity (Pas · sec) for this molecule. CC(=CCCCOCC(O)CO)CCCC(C)CCCC(C)CCCC(C)C (stereo not drawn) [Example 31]
Reply: 0.44 Pas · sec

---

experiment: Viscosity measurement with viscosity and viscoelasticity measuring apparatus MARS (Example 179); type: physicochemical; details: 25° C., shear velocity 105.7 s^−1, MARS
Parameter Viscosity (Pas · sec): see the listing below.
Give your result in Pas · sec as a bare value.

# example entries with known answers
CC(=CC(=O)OCC(O)COCC(O)CO)CCCC(C)CCCC(C)CCCC(C)C (stereo not shown) [Example 68] :: 9.5
CC(=CCCCOCC(CO)(CO)CO)CCCC(C)CCCC(C)C (stereo not shown) [Example 109] :: 0.98
CC(=CCOCC(O)CO)CCCC(C)CCCC(C)CCCC(C)C (stereo not shown) [Example 80] :: 0.45

--- query ---
Ask: Give the reported Viscosity (Pas · sec) for this compound. CC(=CCOC[C@H](O)[C@@H](O)[C@H](O)CO)CCCC(C)CCCC(C)C (stereo partly shown) [Example 166]
Reply: 1.1
